Procedure details: NOD1 signaling inhibitors, primary screen, cell-based, luminescence, uHTS (AID 1578);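 note: HEK-293T reporter cells stimulated with the NOD1 agonist gamma-tri-DAP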
Condition context: NOD1-driven NF-kB luciferase reporter cells, at 4 µM, active compounds read high
Out of some 290,000 compounds screened, about 3,000 (1%) were called active. The full list was thinned out, with actives kept by preference.
Catalogue of inhibition readings, one per entry.
The answer is to be given in %; state only the numeric part.

Before answering, review these 5 worked examples.
[
  {
    "Compound": "COc1cc2c(cc1OC)C(C1C(=O)CCCC1=O)N(C(=O)CCl)CC2 (stereo not drawn)",
    "inhibition, %": -8
  },
  {
    "Compound": "CCOc1cc2[nH]c(=O)n(CCCN3CCCC3=O)c(=O)c2cc1OCC",
    "inhibition, %": 0.4
  },
  {
    "Compound": "O=C1Nc2cccnc2N(C(=O)CCl)c2ccccc21",
    "inhibition, %": 50.5
  },
  {
    "Compound": "CCc1nnc(NC(=O)c2nn(-c3ccccc3)nc2C)s1",
    "inhibition, %": -6.6
  },
  {
    "Compound": "O=C(COc1ccccc1)NNc1c2ccccc2nc2ccccc12",
    "inhibition, %": 40.5
  }
]

Kindly consider the entry below.
Challenge: So what does the record say about inhibition for CCN(CC)CC1CCCCN1CC(=O)N1c2ccccc2C(=O)Nc2cccnc21 (stereo not drawn) ?
Response given: 5.4

From: PubChem BioAssay AID1578
